molecular target: PDE4B1 (Homo sapiens, UniProt Q07343); construct: purchased BPS 60041; assay: In vitro PDE4B enzyme activity assay (IMAP FP-based); assay type: biochemical
Sequence (Q07343 whole entry): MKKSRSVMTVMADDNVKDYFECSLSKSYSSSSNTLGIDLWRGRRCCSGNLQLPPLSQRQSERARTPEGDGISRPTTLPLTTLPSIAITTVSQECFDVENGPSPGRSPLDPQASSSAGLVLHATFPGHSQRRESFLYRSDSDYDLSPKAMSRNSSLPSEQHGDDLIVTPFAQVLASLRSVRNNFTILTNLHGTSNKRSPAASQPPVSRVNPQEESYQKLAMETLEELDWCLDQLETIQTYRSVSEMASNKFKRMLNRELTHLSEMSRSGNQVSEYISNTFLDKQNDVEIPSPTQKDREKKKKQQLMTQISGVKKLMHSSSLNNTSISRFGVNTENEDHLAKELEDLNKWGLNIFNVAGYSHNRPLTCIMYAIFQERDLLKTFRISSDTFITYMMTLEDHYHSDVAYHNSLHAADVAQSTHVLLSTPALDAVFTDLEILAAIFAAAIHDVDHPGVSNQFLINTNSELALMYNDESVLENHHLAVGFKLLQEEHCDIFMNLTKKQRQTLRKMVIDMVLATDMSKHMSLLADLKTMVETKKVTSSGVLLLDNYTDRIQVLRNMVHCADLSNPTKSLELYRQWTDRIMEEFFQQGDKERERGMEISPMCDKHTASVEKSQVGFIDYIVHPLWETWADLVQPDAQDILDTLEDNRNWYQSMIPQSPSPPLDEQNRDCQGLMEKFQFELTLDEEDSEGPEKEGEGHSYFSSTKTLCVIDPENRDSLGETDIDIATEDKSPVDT
Quantity Name: IC50

Given the compound CCOc1cc2c(cc1OC)-c1cc(N(CCN3CCOC3=O)c3c(C)cc(C)cc3C)nc(=O)n1CC2 , what is its reported IC50?
876 nM
